Below is a list of entries, each paired with its recorded Kd value.
measurementTarget: T1, Recombinant human CD4 (R&D Systems, Cat. 10327-CD) (human, UniProt P01730 26-390, limits assumed)
T1 construct: Bought reagent; also called huCD4
experimentSummary: BLI Octet, non-clonal supernatant on AMC sensor, 100 nM human CD4, 1:1 local fit;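 note: Single-concentration kinetics per supernatant, with the 1:1 model fitted across both the association and dissociation phases of the sensorgram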

{"binder": "75110_11D03A (antibody, V domains shown, Tested as non-clonal AlivaMab Mouse Kappa hybridoma supernatant, captured by anti-mouse IgG Fc sensor) VH: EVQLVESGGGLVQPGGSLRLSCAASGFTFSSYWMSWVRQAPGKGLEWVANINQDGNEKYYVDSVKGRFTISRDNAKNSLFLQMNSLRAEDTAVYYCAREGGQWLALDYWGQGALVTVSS VL: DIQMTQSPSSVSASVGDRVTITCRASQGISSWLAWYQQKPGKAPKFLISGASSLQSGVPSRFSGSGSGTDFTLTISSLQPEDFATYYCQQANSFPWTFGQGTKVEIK", "inequalitySymbol": "=", "Kd / nM": 4.67}
{"binder": "75110_14N19A (antibody, V domains shown, Tested as non-clonal AlivaMab Mouse Kappa hybridoma supernatant, captured by anti-mouse IgG Fc sensor) VH: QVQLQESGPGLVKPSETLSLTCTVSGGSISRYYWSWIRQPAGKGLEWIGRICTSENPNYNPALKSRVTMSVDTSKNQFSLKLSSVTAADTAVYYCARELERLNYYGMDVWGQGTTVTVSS VL: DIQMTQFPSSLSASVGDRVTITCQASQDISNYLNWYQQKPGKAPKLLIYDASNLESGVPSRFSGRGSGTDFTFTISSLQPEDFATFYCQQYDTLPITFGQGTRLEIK", "inequalitySymbol": "=", "Kd / nM": 19.2}
{"binder": "75110_14P05A (antibody, V domains shown, Tested as non-clonal AlivaMab Mouse Kappa hybridoma supernatant, captured by anti-mouse IgG Fc sensor) VH: EVQLVESGGGLVQPGGSLRLSCAASGFTFSSYDVHWVRQATGKGLEWVSTIGTAGDTYYPGSVKGRFTISRENAKNSLYLQMNSLRAGDTAVYYCARGGFYYYGMDVWGQGTTVTVSS VL: EIVLTQSPGTLSLSPGERATLSCRASQSVSSSYLAWYQQKPGQTPRLLIYGASSRATGIPDRFSGSGSGTDFTLTISRLEPEDFAVFYCQQSGSSPFTFGPGTKVDVK", "inequalitySymbol": "=", "Kd / nM": 12.3}
{"binder": "75110_14P08A (antibody, V domains shown, Tested as non-clonal AlivaMab Mouse Kappa hybridoma supernatant, captured by anti-mouse IgG Fc sensor) VH: QVQLQESGPGLVKSSETLSLTCTDSGDSIRSYYWNWIRQPAGKGLEWIGRIYASGSTNYNPSLKSRVIMSADTSKNRFSLKLSSVTAADTAVYYCARDGGVGDSLDYWGQGTLVTVSS VL: DIVMTQTPLSLPVTPGEPASISCRSSQSLLDSDDGNTYLDWYLQKPGQSPQLLIYTLSYRASGVPDRFSGSGSGTDFTLKISRVEAEDVGVYYCMQRIEFPFTFGPGTKVDIK", "inequalitySymbol": "=", "Kd / nM": 7.47}
{"binder": "75110_07B16A (antibody, V domains shown, Tested as non-clonal AlivaMab Mouse Kappa hybridoma supernatant, captured by anti-mouse IgG Fc sensor) VH: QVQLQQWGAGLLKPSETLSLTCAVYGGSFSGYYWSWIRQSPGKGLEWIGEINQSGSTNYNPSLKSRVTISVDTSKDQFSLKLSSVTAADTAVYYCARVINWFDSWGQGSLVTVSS VL: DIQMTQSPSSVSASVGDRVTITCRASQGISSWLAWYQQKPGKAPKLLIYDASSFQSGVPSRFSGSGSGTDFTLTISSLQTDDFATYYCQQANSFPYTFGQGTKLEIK", "inequalitySymbol": "=", "Kd / nM": 0.79}
{"binder": "75110_14I16A (antibody, V domains shown, Tested as non-clonal AlivaMab Mouse Kappa hybridoma supernatant, captured by anti-mouse IgG Fc sensor) VH: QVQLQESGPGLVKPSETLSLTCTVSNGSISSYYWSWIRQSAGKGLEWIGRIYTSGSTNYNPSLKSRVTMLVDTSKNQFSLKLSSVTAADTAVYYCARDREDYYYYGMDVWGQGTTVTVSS VL: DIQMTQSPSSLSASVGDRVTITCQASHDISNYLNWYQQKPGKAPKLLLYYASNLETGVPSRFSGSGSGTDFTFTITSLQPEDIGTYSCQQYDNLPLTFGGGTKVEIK", "inequalitySymbol": "<", "Kd / nM": 0.001}
{"binder": "75110_03C01A (antibody, V domains shown, Tested as non-clonal AlivaMab Mouse Kappa hybridoma supernatant, captured by anti-mouse IgG Fc sensor) VH: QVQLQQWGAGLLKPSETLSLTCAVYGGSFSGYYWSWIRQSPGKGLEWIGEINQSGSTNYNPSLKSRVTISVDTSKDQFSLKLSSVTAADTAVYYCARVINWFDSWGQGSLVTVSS VL: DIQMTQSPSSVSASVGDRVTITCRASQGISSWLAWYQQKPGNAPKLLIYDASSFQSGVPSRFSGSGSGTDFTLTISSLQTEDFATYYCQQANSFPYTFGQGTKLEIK", "inequalitySymbol": "<", "Kd / nM": 0.001}
{"binder": "75110_01J09A (antibody, V domains shown, Tested as non-clonal AlivaMab Mouse Kappa hybridoma supernatant, captured by anti-mouse IgG Fc sensor) VH: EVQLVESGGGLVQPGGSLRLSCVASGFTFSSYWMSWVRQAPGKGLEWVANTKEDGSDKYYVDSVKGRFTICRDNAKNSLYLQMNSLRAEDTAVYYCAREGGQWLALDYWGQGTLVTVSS VL: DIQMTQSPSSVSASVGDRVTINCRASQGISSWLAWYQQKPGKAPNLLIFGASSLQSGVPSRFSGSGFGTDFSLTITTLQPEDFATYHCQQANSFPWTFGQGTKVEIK", "inequalitySymbol": "=", "Kd / nM": 11}
{"binder": "75110_13P22A (antibody, V domains shown, Tested as non-clonal AlivaMab Mouse Kappa hybridoma supernatant, captured by anti-mouse IgG Fc sensor) VH: QVQLQQWGAGLLKPSETLSLTCAAYGGSFSGYYWSWIRQSPGKGLEWIGEINQSGNTNYNPSLKSRVTISADTSKNQFSLKLSSVTAADTAVYYCARVLNWFDYWGQGILVTVSS VL: DIQMTQSPSSVSASVGDRVTITCRASQGISDWLAWYQQKSGKAPDLLIFAASSLQSGVPSRFSGSGSGTDFTLTISSLQPEDFATYYCQQANSFPYTFGQGTKLEIK", "inequalitySymbol": "=", "Kd / nM": 0.68}
{"binder": "75110_04K10A (antibody, V domains shown, Tested as non-clonal AlivaMab Mouse Kappa hybridoma supernatant, captured by anti-mouse IgG Fc sensor) VH: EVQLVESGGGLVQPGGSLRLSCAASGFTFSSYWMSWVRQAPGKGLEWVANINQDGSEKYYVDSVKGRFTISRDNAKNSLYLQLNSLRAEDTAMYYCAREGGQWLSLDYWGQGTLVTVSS VL: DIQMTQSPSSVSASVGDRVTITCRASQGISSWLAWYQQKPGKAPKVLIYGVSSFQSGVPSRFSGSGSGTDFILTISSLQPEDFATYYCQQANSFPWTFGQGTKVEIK", "inequalitySymbol": "=", "Kd / nM": 6.3}
